These entries and their values trace back to patent US10538498B2.

Biological target: human recombinant HDAC6 (Homo sapiens, UniProt Q9UBN7)
Sequence (Q9UBN7 whole entry): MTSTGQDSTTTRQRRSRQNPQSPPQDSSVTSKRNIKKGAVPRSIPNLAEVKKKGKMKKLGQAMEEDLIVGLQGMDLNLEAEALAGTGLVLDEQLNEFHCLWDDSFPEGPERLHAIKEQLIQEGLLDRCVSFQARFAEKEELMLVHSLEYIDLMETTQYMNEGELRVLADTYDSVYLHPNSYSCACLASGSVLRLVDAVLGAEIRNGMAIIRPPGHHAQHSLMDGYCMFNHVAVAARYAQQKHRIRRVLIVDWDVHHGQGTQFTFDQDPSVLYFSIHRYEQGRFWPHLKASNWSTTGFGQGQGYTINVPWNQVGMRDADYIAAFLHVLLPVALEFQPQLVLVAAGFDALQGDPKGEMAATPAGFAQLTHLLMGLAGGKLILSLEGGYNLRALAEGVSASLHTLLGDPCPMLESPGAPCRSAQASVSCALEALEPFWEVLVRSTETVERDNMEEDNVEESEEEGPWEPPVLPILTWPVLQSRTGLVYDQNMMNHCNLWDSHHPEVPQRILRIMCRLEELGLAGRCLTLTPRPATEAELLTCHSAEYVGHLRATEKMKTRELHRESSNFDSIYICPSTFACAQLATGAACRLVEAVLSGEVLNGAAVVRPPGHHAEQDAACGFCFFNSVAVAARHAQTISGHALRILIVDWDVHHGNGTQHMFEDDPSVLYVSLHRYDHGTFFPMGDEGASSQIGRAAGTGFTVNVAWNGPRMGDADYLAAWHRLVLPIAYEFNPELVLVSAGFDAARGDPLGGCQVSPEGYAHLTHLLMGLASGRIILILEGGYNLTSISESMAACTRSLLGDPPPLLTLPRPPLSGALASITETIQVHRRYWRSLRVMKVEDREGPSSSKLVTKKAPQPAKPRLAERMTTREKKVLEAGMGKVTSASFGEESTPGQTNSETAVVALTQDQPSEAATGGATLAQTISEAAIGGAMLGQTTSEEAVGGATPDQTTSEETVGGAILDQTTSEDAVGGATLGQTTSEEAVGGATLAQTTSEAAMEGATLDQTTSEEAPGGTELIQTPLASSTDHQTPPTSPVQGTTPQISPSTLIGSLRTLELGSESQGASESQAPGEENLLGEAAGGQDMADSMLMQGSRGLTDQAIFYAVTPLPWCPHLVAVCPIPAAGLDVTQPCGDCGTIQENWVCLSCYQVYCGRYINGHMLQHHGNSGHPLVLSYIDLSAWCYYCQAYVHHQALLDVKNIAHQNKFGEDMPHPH
Assay: HDAC6 enzyme activity inhibition assay (HDAC Fluorimetric Drug Discovery Kit)
Conditions: same protocol as the HDAC1 enzyme activity test
The label is Condition met for IC50 below 50 nM and Condition not met for IC50 equal to or exceeding 50 nM.

1) Cc1cncn1CCS(=O)(=O)N(Cc1ccc(-c2nnc(C(F)F)o2)cc1)c1ccccc1 [Compound 11807] ... Condition not met
2) O=S(=O)(CCCN1CCOCC1)N(Cc1ccc(-c2nnc(C(F)F)o2)cn1)c1ccc(F)c(Cl)c1 [Compound 11711] ... Condition not met
3) O=S(=O)(CCN1CCC(CO)CC1)N(Cc1ccc(-c2nnc(C(F)F)o2)cc1)c1ccccc1 [Compound 11810] ... Condition met

Strictly below 50 nM: is that where IC50 of CN1CCN(CCS(=O)(=O)N(Cc2ccc(-c3nnc(C(F)F)o3)cc2)c2ccccc2)CC1 [Compound 11630] sits?
Condition met

In plain terms, does CCS(=O)(=O)N(Cc1ccc(-c2nnc(C(F)F)o2)cn1)c1ccc(Cl)c(C)c1 [Compound 11504] come in under 50 nM for IC50?
Condition met

Hi there! Is IC50 for O=C(c1cncn1CCS(=O)(=O)N(Cc1ccc(-c2nnc(C(F)F)o2)cc1)c1ccccc1)C(F)F [Compound 11678] below 50 nM, do you know?
Condition not met

Check if IC50 falls below 50 nM for CCC(=O)N1CC(N2CCC(S(=O)(=O)N(Cc3ccc(-c4nnc(C(F)F)o4)cc3)c3cccc(Cl)c3)CC2)C1 [Compound 11780] .
Condition not met

Find out if reported IC50 for CC(=O)N1CC(N2CCC(S(=O)(=O)N(Cc3ccc(-c4nnc(C(F)F)o4)cc3F)c3ccc(F)c(Cl)c3)CC2)C1 [Compound 11447] is less than 50 nM
Condition met

Say whether its IC50 is strictly beneath 50 nM. Entry: CS(=O)(=O)N(Cc1ccc(-c2noc(C(F)(F)F)n2)cc1)Cc1ccc(-c2nnc(C(F)F)o2)cc1F [Compound 11389]
Condition not met

====

Biological target: human recombinant HDAC6 (Homo sapiens)
Construct: purchased Calbiochem 382180
Experiment: HDAC6 enzyme activity inhibition assay (HDAC Fluorimetric Drug Discovery Kit)
Format: biochemical
Settings: HDAC1 vs HDAC6
Protocol: In order to examine the HDAC6 selectivity of the compounds of formula I of the present invention by HDAC1 and HDAC6 enzymatic activity inhibition assays, an experiment was performed using a conventional substance as a control. HDAC enzyme activity was measured using a HDAC Fluorimetric Drug Discovery Kit (BML-AK511, 516, Enzo Life Science). […] Based on the resulting values, each IC50 value was calculated using GraphPad Prism4.0 program.
Measured metric: HDAC6 selectivity (fold)
Report only the number, with the unit fold understood.

Guide cases for HDAC6 selectivity (fold), answers given:
1) Cc1cccc(N(Cc2ccc(-c3nnc(C(F)F)o3)cc2)S(=O)(=O)C2CCN(C3CC(O)C3)CC2)c1 (stereo not shown) ... 1218
2) CN1CCN(CCS(=O)(=O)N(Cc2ccc(-c3nnc(C(F)F)o3)cc2F)c2ccc(F)c(Cl)c2)CC1 ... 7143
3) O=C(OCCCS(=O)(=O)N(Cc1ccc(-c2nnc(C(F)F)o2)cc1)c1ccccc1)C(F)F ... 1065

Reported HDAC6 selectivity (fold) for human recombinant HDAC6 (Homo sapiens), given O=S(=O)(CCCN1CCC(F)C1)N(Cc1ccc(-c2nnc(C(F)F)o2)cc1)c1ccccc1 (stereo in doubt) ?
741
